experiment: NCI Yeast Anticancer Drug Screen. Data for the mgt1 strain (AID 153); details: S. cerevisiae mgt1 mutant growth inhibition; at 33.0 µM; stronger effect = higher value
Compounds without any hit were thinned out: in the full panel of roughly 79,000, 15% have a hit.
Entries annotated with measured growth inhibition
// units = %; emit number, no label

{"compound": "CCCc1cc(C(=O)OCC)cc(CCC)c1O", "quantitative.result": -12}
{"compound": "CC(C)[N+]([O-])(CCCNc1c2ccccc2nc2cccc([N+](=O)[O-])c12)C(C)C", "quantitative.result": 90}
{"compound": "CCCCCCCCCCCCCCCCCCNC", "quantitative.result": 26}
{"compound": "O=[N+]([O-])CC(SCc1ccccc1)c1ccc2c(c1)OCO2 (stereo unspecified)", "quantitative.result": 97}
{"compound": "COC(=O)c1ccc([N+](=O)[O-])c(O)c1", "quantitative.result": 44}

Proceeding to the next compound to report its growth inhibition.
compound CCCCCCCCCCCC1=C(O)C(=O)C=C(O)C1=O , growth inhibition observed: 89
